Tested on: K. pneumoniae 2711
Test: MIC against K. pneumoniae 2711
Type: cell-based
Conditions: Klebsiella pneumoniae; Table 3; K. pneumoniae 2711, KPC-3, VIM-1; alone; read-out: MIC
QUANTITY NAME: MIC (µg/mL)

RECORD SMILES	ASSAY SYSTEM	MIC / µg/mL
CO/N=C(\C(=O)N[C@@H]1C(=O)N2C(C(=O)[O-])=C(C[n+]3ccc4c(ccn4Cc4cc(C(=N)Nc5ccccc5)cs4)c3)CS[C@H]12)c1nc(N)sc1Cl	K. pneumoniae 2711	4

a: CC(C)(O/N=C(\C(=O)N[C@@H]1C(=O)N2C(C(=O)[O-])=C(C[n+]3ccc4c(ccn4Cc4cc(C(=N)N)cs4)c3)CS[C@H]12)c1csc(N)n1)C(=O)O
b: CC(C)(O/N=C(\C(=O)N[C@@H]1C(=O)N2C(C(=O)[O-])=C(C[n+]3ccc4c(ccn4Cc4cc(C(=N)N)co4)c3)CS[C@H]12)c1csc(N)n1)C(=O)O
c: CC(C)(O/N=C(\C(=O)N[C@@H]1C(=O)N2C(C(=O)[O-])=C(C[n+]3ccc4n(Cc5ccc(C(=N)N)cc5)ccn43)CS[C@H]12)c1csc(N)n1)C(=O)O
// ranking: key=MIC, reverse=True Please list the labels according to the requested order.
c, b, a

====

System: K. pneumoniae 4107
Assay: MIC against K. pneumoniae 4107
Assay type: cell-based
Details: Table 3; K. pneumoniae 4107, KPC-2, TEM-1, SHV-11; in combination with NXL-104
QUANTITY NAME: MIC (µg/mL)

COMPOUND	ASSAY SYSTEM	QUANTITY NAME	OBSERVED VALUE
CC(C)(O/N=C(\C(=O)N[C@@H]1C(=O)N2C(C(=O)[O-])=C(C[n+]3ccc4c(ccn4Cc4cc(C(=N)N)cs4)c3)CS[C@H]12)c1csc(N)n1)C(=O)O	K. pneumoniae 4107	MIC	1
CC(C)(O/N=C(\C(=O)N[C@@H]1C(=O)N2C(C(=O)[O-])=C(C[n+]3ccc4n(Cc5ccc(C(=N)N)cc5)ccn43)CS[C@H]12)c1csc(N)n1)C(=O)O	K. pneumoniae 4107	MIC	2
CO/N=C(\C(=O)N[C@@H]1C(=O)N2C(C(=O)[O-])=C(C[n+]3ccc4c(ccn4Cc4cc(C(=N)Nc5nccs5)cs4)c3)CS[C@H]12)c1nc(N)sc1Cl	K. pneumoniae 4107	MIC	2
CC(C)(O/N=C(\C(=O)N[C@@H]1C(=O)N2C(C(=O)[O-])=C(C[n+]3ccc4c(ccn4Cc4cc(C(=N)N)co4)c3)CS[C@H]12)c1csc(N)n1)C(=O)O	K. pneumoniae 4107	MIC	1

P: CO/N=C(\C(=O)N[C@@H]1C(=O)N2C(C(=O)[O-])=C(C[n+]3ccc4c(ccn4Cc4cc(C(=N)Nc5ccccc5)cs4)c3)CS[C@H]12)c1nc(N)sc1Cl
Q: CC(C)(O/N=C(\C(=O)N[C@@H]1C(=O)N2C(C(=O)[O-])=C(C[n+]3ccc4n3CCN4Cc3ccc(C(=N)N)cc3)CS[C@H]12)c1csc(N)n1)C(=O)O
R: CC(C)(O/N=C(\C(=O)N[C@@H]1C(=O)N2C(C(=O)[O-])=C(C[n+]3ccccc3)CS[C@H]12)c1csc(N)n1)C(=O)O [CAZ, ceftazidime, reference compound]
// ranking: key=MIC, reverse=True Please list the labels according to the requested order.
R, Q, P

====

Test system: C. freundii 580
Assay: MIC against C. freundii 580
Assay type: cell-based
Settings: Table 2; C. freundii 580, Caz R, IMP S; in combination with NXL-104
QUANTITY NAME: MIC (µg/mL)

MOLECULE	MIC (µg/mL)
CC(C)(O/N=C(\C(=O)N[C@@H]1C(=O)N2C(C(=O)[O-])=C(C[n+]3ccc4c(ccn4Cc4cc(C(=N)N)co4)c3)CS[C@H]12)c1csc(N)n1)C(=O)O	0.25

I: CC(C)(O/N=C(\C(=O)N[C@@H]1C(=O)N2C(C(=O)[O-])=C(C[n+]3ccc4n3CCN4Cc3ccc(C(=N)N)cc3)CS[C@H]12)c1csc(N)n1)C(=O)O
II: CC(C)(O/N=C(\C(=O)N[C@@H]1C(=O)N2C(C(=O)[O-])=C(C[n+]3ccccc3)CS[C@H]12)c1csc(N)n1)C(=O)O [CAZ, ceftazidime, reference compound]
III: CC(C)(O/N=C(\C(=O)N[C@@H]1C(=O)N2C(C(=O)[O-])=C(C[n+]3ccc4c(ccn4Cc4cc(C(=N)N)cs4)c3)CS[C@H]12)c1csc(N)n1)C(=O)O
Arrange these 3 molecules in increasing order of MIC. Please list the labels according to the requested order.
III, I, II

====

System: C. freundii 579
Assay: MIC against C. freundii 579
Type: cell-based
Details: Citrobacter freundii; Table 2; C. freundii 579, Caz R, IMP S; alone; read-out: MIC
QUANTITY NAME: MIC (µg/mL)

See these solved cases before continuing.
RECORD SMILES	UNIT ANNOTATION	MIC
CC(C)(O/N=C(\C(=O)N[C@@H]1C(=O)N2C(C(=O)[O-])=C(C[n+]3ccc4c(ccn4Cc4cc(C(=N)N)co4)c3)CS[C@H]12)c1csc(N)n1)C(=O)O	µg/mL	2
CC(C)(O/N=C(\C(=O)N[C@@H]1C(=O)N2C(C(=O)[O-])=C(C[n+]3ccc4c(ccn4Cc4cc(C(=N)N)cs4)c3)CS[C@H]12)c1csc(N)n1)C(=O)O	µg/mL	4

A: CC(C)(O/N=C(\C(=O)N[C@@H]1C(=O)N2C(C(=O)[O-])=C(C[n+]3ccc4c(ccn4Cc4ccc(C(=N)N)cc4)c3)CS[C@H]12)c1csc(N)n1)C(=O)O
B: CC(C)(O/N=C(\C(=O)N[C@@H]1C(=O)N2C(C(=O)[O-])=C(C[n+]3ccc4n3CCN4Cc3ccc(C(=N)N)cc3)CS[C@H]12)c1csc(N)n1)C(=O)O
# query: argmin of MIC over A and B # respond with the chosen item's label
B
(B: 2 µg/mL, A: 4 µg/mL)

====

Test system: K. pneumoniae 2711
Assay: MIC against K. pneumoniae 2711
Assay type: cell-based
Conditions: Klebsiella pneumoniae; Table 3; K. pneumoniae 2711, KPC-3, VIM-1; alone; read-out: MIC
Description: As shown, the foregoing composition was tested for minimum inhibitory concentration (MIC, μg/mL) against bacteria listed in Tables 2-3.
QUANTITY NAME: MIC (µg/mL)

RECORD SMILES	UNIT ANNOTATION	MIC
CO/N=C(\C(=O)N[C@@H]1C(=O)N2C(C(=O)[O-])=C(C[n+]3ccc4c(ccn4Cc4cc(C(=N)Nc5nccs5)cs4)c3)CS[C@H]12)c1nc(N)sc1Cl	µg/mL	4
CC(C)(O/N=C(\C(=O)N[C@@H]1C(=O)N2C(C(=O)[O-])=C(C[n+]3ccc4c(ccn4Cc4ccc(C(=N)N)cc4)c3)CS[C@H]12)c1csc(N)n1)C(=O)O	µg/mL	4
CC(C)(O/N=C(\C(=O)N[C@@H]1C(=O)N2C(C(=O)[O-])=C(C[n+]3ccc4n3CCN4Cc3ccc(C(=N)N)cc3)CS[C@H]12)c1csc(N)n1)C(=O)O	µg/mL	4

====

Tested on: E. cloacae596
Experiment: MIC against E. cloacae596
Assay type: cell-based, E. cloacae
Conditions: Enterobacter cloacae; Table 2; E. cloacae596, Caz R, IMP S; alone; read-out: MIC
QUANTITY NAME: MIC (µg/mL)

See these solved cases before continuing.
RECORD SMILES	UNIT ANNOTATION	OBSERVED VALUE
CC(C)(O/N=C(\C(=O)N[C@@H]1C(=O)N2C(C(=O)[O-])=C(C[n+]3ccc4n3CCN4Cc3ccc(C(=N)N)cc3)CS[C@H]12)c1csc(N)n1)C(=O)O	µg/mL	0.5
CC(C)(O/N=C(\C(=O)N[C@@H]1C(=O)N2C(C(=O)[O-])=C(C[n+]3ccc4c(ccn4Cc4cc(C(=N)N)co4)c3)CS[C@H]12)c1csc(N)n1)C(=O)O	µg/mL	8

a: CC(C)(O/N=C(\C(=O)N[C@@H]1C(=O)N2C(C(=O)[O-])=C(C[n+]3ccc4c(ccn4Cc4cc(C(=N)N)cs4)c3)CS[C@H]12)c1csc(N)n1)C(=O)O
b: CC(C)(O/N=C(\C(=O)N[C@@H]1C(=O)N2C(C(=O)[O-])=C(C[n+]3ccc4c(ccn4Cc4ccc(C(=N)N)cc4)c3)CS[C@H]12)c1csc(N)n1)C(=O)O
Out of a and b , name the one with the higher MIC. # respond with the chosen item's label
a
